# Tested on: MDCK cells
Assay Readout: CC50

Tested system MDCK cells; CC50 recorded for `O=C(O)c1cc(-c2ccc(C=C3SC(=S)N(CCc4ccccc4)C3=O)o2)ccc1Cl` was > 50 µM

---

Listing of entries alongside the reported CC50.
# Test Method Notes: in vitro
# Condition Set: dog

In the examples that follow, each entry is paired with its recorded CC50.
Compound	Result
C#CCOc1ccc(CCN2C(=O)/C(=C/c3ccc(-c4ccc(Cl)c(C(=O)O)c4)o3)SC2=S)cc1 [FD007]	> 50 µM
CCOc1ccc(CCN2C(=O)/C(=C/c3ccc(-c4ccc(Cl)c(C(=O)O)c4)o3)SC2=S)cc1 [FD009]	> 50 µM
C#CCOCCOc1ccc(CCN2C(=O)/C(=C/c3ccc(-c4ccc(Cl)c(C(=O)O)c4)o3)SC2=S)cc1 [FD008]	> 50 µM
O=C(O)c1cc(-c2ccc(/C=C3\SC(=S)N(CCc4ccc(OCc5ccsc5)cc4)C3=O)o2)ccc1Cl [FD013]	> 50 µM
O=C(O)c1cc(-c2ccc(/C=C3\SC(=S)N(CCc4ccc(OCc5ccc(F)cc5)cc4)C3=O)o2)ccc1Cl [FD010]	> 50 µM

For the next question, use this compound.
The reported value for O=C(O)c1cc(-c2ccc(/C=C3\SC(=S)N(CCc4ccc(OCC5CC5)cc4)C3=O)o2)ccc1Cl [FD012] in terms of CC50 is 41.7 µM
